Hey, just so you know, these numbers are from the supplement of paper PMC9262897.

- System: E. coli TESEC Mtb Asd
- Protocol details: growth (OD600 after 10 h); higher = more growth (less inhibition)
- Condition context: arabinose induction (level): High; compound 0.1 mM; raw OD600 reference: median of DMSO wells 0.331, cell-free background 0.041
Structures can show the parent of a compound that is named as a salt.
Endpoint name: growth
Number only, no unit.

Data request: State, in one line, measured growth of O[C@@H]1CCCC[C@H]1N1CCC(c2ccccc2)CC1 [L(-)-vesamicol hydrochloride]
Data returned: 0.294

Data request: State, in one line, measured growth of COc1cc2c(cc1OC)C(C)NCC2 (stereo not given)
Data returned: 0.337

Data request: State, in one line, measured growth of C[C@@]12N[C@@H](Cc3ccccc31)c1ccccc12 [(-)-MK 801 hydrogen maleate]
Data returned: 0.244

Data request: State, in one line, measured growth of CN(C)C(=O)Oc1ccc[n+](C)c1 [Pyridostigmine iodide]
Data returned: 0.335

Data request: State, in one line, measured growth of CN1[C@@H]2CC[C@H]1C[C@@H](OC(=O)[C@H](CO)c1ccccc1)C2 [Hyoscyamine (L)]
Data returned: 0.317

###

- Tested on: E. coli TESEC Mtb Alr
- Protocol details: growth (OD600 after 10 h); higher = more growth (less inhibition)
- Condition context: arabinose 1000000 nM; compound 0.1 mM; raw OD600 reference: median of DMSO wells 0.193, cell-free background 0.041
Where a name gives a salt, the structure may show the parent alone.
Endpoint name: growth
Number only, no unit.

Data request: Provide measured growth on E. coli TESEC Mtb Alr for CC(Cc1ccccc1)NCCC(c1ccccc1)c1ccccc1 (stereo not given) [Prenylamine lactate] please.
Data returned: 0.0393

Data request: Provide measured growth on E. coli TESEC Mtb Alr for C[C@]12CC[C@@H](O)C[C@@H]1CC[C@@H]1[C@@H]2CC[C@]2(C)C(=O)CC[C@@H]12 [Androsterone] please.
Data returned: 0.0932

Data request: Provide measured growth on E. coli TESEC Mtb Alr for C[C@]12Cc3c[nH]nc3C[C@@H]1CC[C@@H]1[C@@H]2CC[C@@]2(C)[C@H]1CC[C@]2(C)O [Stanozolol] please.
Data returned: 0.141

Data request: Provide measured growth on E. coli TESEC Mtb Alr for CC(=O)O[C@H]1C[C@@H]2CC[C@@H]3[C@H](CC[C@@]4(C)[C@H]3C[C@H]([N+]3(C)CCCCC3)[C@@H]4OC(C)=O)[C@@]2(C)C[C@@H]1[N+]1(C)CCCCC1 [Pancuronium bromide] please.
Data returned: 0.168

Data request: Provide measured growth on E. coli TESEC Mtb Alr for CC(Cc1ccc(O)cc1)NCC(O)c1cc(O)cc(O)c1 (stereo not given) [Fenoterol hydrobromide] please.
Data returned: 0.19

###

- System: E. coli TESEC Mtb Alr
- Protocol details: growth (OD600 after 10 h); higher = more growth (less inhibition)
- Condition context: arabinose 10000 nM; compound 0.1 mM; raw OD600 reference: median of DMSO wells 0.264, cell-free background 0.041
Where a name gives a salt, the structure may show the parent alone.
Endpoint name: growth

Data request: Provide measured growth on E. coli TESEC Mtb Alr for CC[C@@H](CO)NC(=O)[C@@H]1C=C2c3cccc4[nH]cc(c34)C[C@H]2N(C)C1 [Methylergometrine maleate] please.
Data returned: 0.207

Data request: Provide measured growth on E. coli TESEC Mtb Alr for CC(=O)OCC(=O)[C@H]1CC[C@H]2[C@@H]3CC[C@H]4C[C@H](O)CC[C@]4(C)[C@H]3C(=O)C[C@]12C [Alfadolone acetate] please.
Data returned: 0.222

Data request: Provide measured growth on E. coli TESEC Mtb Alr for `CC(C)C[C@H](CN)CC(=O)O` please.
Data returned: 0.273
